Reference source for all entries: patent US20200079833A1

target: GLP-1 receptor (GLP-1R), primary cAMP assay (human, UniProt P43220 24-463); experiment: cell-based or functional assay
Starred links: 1 amine or outer side, 2 acyl side, 3 side chain; linkers in the order of their positions; H or OH if unused. Non-standard residues stand in square brackets, D forms with d. Groups on a side chain read outwards from the residue. Primed or numbered codes have the meaning given here. No end group written: not given here. *: point of attachment. γGlu = O=C(O)[C@H](CCC(=O)[*:2])N[*:1]; Palmitoyl = CCCCCCCCCCCCCCCC(=O)*; αMeF = C[C@](N)(Cc1ccccc1)C(=O)O; αMeK = C[C@](N)(CCCCN)C(=O)O; Lauroyl = CCCCCCCCCCCC(=O)*; αMeS = C[C@](N)(CO)C(=O)O; PEG2′ = not defined here; Aib = CC(C)(N)C(=O)O
ENDPOINT: Primary assay EC50 (cAMP) Mean
A complete answer gives the number and then names the unit.

Reported Primary assay EC50 (cAMP) Mean ( H[Aib]EGS[αMeF]TSDV[αMeS]SK([PEG2′-PEG2′-γGlu-Lauroyl])LEGEAA[αMeK]EFIAWK([PEG2′-PEG2′-γGlu-Lauroyl])VEGG-NH2 [SEQ ID NO: 264] ) = 12.8 pM

Reported Primary assay EC50 (cAMP) Mean ( H[Aib]EGTFTSDVSK([PEG2′-PEG2′-γGlu-Lauroyl])YLEGEAAEEFIK([PEG2′-PEG2′-γGlu-Lauroyl])WVVEGG-NH2 [SEQ ID NO: 236] ) = 21.7 pM

Reported Primary assay EC50 (cAMP) Mean ( H[Aib]EGS[αMeF]TSDVSK([PEG2′-PEG2′-γGlu-Palmitoyl])FLEGEAAEEFIK([PEG2′-PEG2′-γGlu-Palmitoyl])FVVEGG-NH2 [SEQ ID NO: 247] ) = 1660 pM

Reported Primary assay EC50 (cAMP) Mean ( H[Aib]EGS[αMeF]TSDK([PEG2′-PEG2′-γGlu-Lauroyl])SSYLEGEAA[αMeK]EFIAK([PEG2′-PEG2′-γGlu-Lauroyl])VVEGG-NH2 [SEQ ID NO: 257] ) = 8.4 pM

Reported Primary assay EC50 (cAMP) Mean ( H[Aib]EGS[αMeF]TSDV[αMeS]SYK([PEG2′-PEG2′-γGlu-Lauroyl])EGEAA[αMeK]EFIK([PEG2′-PEG2′-γGlu-Lauroyl])WVVEGG-NH2 [SEQ ID NO: 268] ) = 4.8 pM

Reported Primary assay EC50 (cAMP) Mean ( H[Aib]EGS[αMeF]TSDVSK([PEG2′-PEG2′-γGlu-Palmitoyl])YLEGEAAEEFIK([PEG2′-PEG2′-γGlu-Palmitoyl])WVVEGG-NH2 [SEQ ID NO: 246] ) = 1400 pM

Reported Primary assay EC50 (cAMP) Mean ( H[Aib]EGS[αMeF]TSDVSK([PEG2′-PEG2′-γGlu-Lauroyl])YLEGEAAEEFIK([PEG2′-PEG2′-γGlu-Lauroyl])WVVEGG-NH2 [SEQ ID NO: 240] ) = 14 pM

Reported Primary assay EC50 (cAMP) Mean ( H[Aib]EGS[αMeF]TSDK([PEG2′-PEG2′-γGlu-Palmitoyl])SSYLEGEAA[αMeK]EFIAK([PEG2′-PEG2′-γGlu-Palmitoyl])VVEGG-NH2 [SEQ ID NO: 260] ) = 388 pM
